- Test system: Schistosoma mansoni schistosomula (Liberian)
- PROTOCOL_SUMMARY: drug effect (1 - score/DMSO control score) (fraction); higher = more antischistosomal effect, active = 0.5 or more; extreme values may be limits of the assay
- CONDITION_DETAILS: 48 h; 10 µM
// allowed return values: active, inactive

Solved entries:
# COMPOUND, ASSAYED_TARGET, CLASS_NAME
rows = [
    ("COc1cccc(NC(=O)c2c(NC(=O)c3cccnc3)sc3c2CCC3)c1", "Schistosoma mansoni schistosomula (Liberian)", "inactive"),
    ("Clc1ccc(CN2CCN(C3=NCCN3)CC2)cc1Cl", "Schistosoma mansoni schistosomula (Liberian)", "inactive"),
    ("Brc1cncc(-c2cc(NCCCn3ccnc3)nc(-c3ccccc3)n2)c1", "Schistosoma mansoni schistosomula (Liberian)", "active"),
]

(Q) Outcome? Cc1cc(C)n2nc(C(=O)Nc3cc(C(F)(F)F)ccc3N3CCOCC3)nc2n1
(A) inactive

(Q) Outcome? O=C(NC1CCCCC1)N1CCN(Cc2ccc3c(c2)OCO3)CC1
(A) inactive
